Listed binders paired with reported IC50 (pM), Fab-ZAP cell kill, NCI-H929
# tgt: T1, human SEMA4A expressed on cells (UniProt ID Q9H3S1, isoform 1) (human, UniProt Q9H3S1 33-761)
# T1 sequence: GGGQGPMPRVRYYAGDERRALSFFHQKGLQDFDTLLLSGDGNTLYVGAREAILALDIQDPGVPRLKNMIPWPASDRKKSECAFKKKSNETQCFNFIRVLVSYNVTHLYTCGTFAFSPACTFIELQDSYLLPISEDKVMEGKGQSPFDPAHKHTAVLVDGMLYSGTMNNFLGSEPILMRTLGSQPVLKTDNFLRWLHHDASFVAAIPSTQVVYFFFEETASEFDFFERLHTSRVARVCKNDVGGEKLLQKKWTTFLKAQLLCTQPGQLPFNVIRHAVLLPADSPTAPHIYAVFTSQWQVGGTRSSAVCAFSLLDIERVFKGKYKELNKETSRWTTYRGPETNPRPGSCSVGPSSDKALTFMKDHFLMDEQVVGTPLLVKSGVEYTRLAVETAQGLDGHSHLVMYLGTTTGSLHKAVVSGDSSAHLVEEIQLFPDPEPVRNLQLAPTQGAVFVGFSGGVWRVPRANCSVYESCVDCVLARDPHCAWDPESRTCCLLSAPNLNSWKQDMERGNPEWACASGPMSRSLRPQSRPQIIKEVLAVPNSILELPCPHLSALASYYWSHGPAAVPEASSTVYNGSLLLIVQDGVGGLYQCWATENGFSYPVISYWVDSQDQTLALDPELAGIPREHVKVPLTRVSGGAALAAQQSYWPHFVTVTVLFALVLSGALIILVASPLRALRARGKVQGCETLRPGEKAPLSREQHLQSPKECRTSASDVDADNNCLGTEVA
# protocol details: cell-based or functional assay
Output spec: scalar in pM, unitless text.

binder	measurement unit	measured result
5Hg4-5Lg1 human Alya IgG1 (antibody, V domains shown, Humanised 5E3; human IgG1 Alya constant (239iCys, S442C, EU), lambda light chain; purified, unconjugated) VH: QVQLVQSGSELKKPGASVKVSCKASGYTFTDYWMHWVRQAPGQGLEWMGAIDTSDSYTSYNQKFKGRFVFSLDTSVSTAYLQICSLKAEDTAVYYCARDYGNFYYYAMDYWGQGTLVTVSS VL: QAVVTQEPSLTVSPGGTVTLTCRSSTGAVTTSNYANWFQQKPGQAPRTLIYGTNNRAPWTPARFSGSLLGGKAALTLSGAQPEDEAEYYCALWYSNHWVFGGGTKLTVL	pM	122

Shifting focus to the binder that follows.
Tell me the measured IC50 (pM), Fab-ZAP cell kill, NCI-H929 of 5Hg2-5Lg6 human Alya IgG1 (antibody, V domains shown, Humanised 5E3; human IgG1 Alya constant (239iCys, S442C, EU), lambda light chain; purified, unconjugated) VH: QVQLVQSGAEVKKPGASVKVSCKASGYTFTDYWMHWVRQAPGQRLEWMGAIDTSDSYTSYNQKFKGRVTITRDTSASTAYMELSSLRSEDTAVYYCARDYGNFYYYAMDYWGQGTLVTVSS VL: SYELTQPSSVSVSPGQTARITCRSSTGAVTTSNYANWFQQKPGQAPVLVIYGTNNRAPGIPERFSGSSSGTTVTLTISGAQVEDEADYYCALWYSNHWVFGGGTKLTVL , please.
42

The measured values listed here are drawn from patent US20250152729A1.
